Target: T1, B-cat-Halo (beta-catenin HaloTag NanoBRET construct expressed in HEK293 cells) (UniProt P35222 1-781)
T1 sequence (looked up): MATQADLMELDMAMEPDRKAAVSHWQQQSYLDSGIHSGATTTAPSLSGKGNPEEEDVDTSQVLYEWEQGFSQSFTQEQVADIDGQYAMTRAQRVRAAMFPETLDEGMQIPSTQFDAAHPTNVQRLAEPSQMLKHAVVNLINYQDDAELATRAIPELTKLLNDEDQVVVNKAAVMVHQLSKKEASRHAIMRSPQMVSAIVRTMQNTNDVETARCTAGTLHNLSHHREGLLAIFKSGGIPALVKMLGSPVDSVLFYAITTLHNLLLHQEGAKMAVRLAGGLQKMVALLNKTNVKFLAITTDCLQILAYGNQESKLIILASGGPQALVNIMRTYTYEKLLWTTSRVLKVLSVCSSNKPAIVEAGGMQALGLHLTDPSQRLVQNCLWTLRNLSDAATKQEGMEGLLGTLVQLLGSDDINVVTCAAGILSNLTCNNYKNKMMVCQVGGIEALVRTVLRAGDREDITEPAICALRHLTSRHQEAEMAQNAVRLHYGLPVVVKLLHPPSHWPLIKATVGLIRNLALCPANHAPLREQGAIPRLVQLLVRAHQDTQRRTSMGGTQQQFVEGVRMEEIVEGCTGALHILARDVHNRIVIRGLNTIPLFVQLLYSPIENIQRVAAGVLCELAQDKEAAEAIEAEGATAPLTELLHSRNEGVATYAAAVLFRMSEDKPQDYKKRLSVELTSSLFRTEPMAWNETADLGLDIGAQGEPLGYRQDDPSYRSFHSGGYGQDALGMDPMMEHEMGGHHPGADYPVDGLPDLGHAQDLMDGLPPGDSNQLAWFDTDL
Test: cell-based or functional assay
Starred links: 1 amine or outer side, 2 acyl side, 3 side chain; linkers in the order of their positions; H or OH if unused. Positions of bridges follow the written chain, without caps; N, C: chain ends. Non-standard residues stand in square brackets, D forms with d. Primed or numbered codes have the meaning given here. *: point of attachment. PyrS2″ = (S)-3-amino-1-((pent-4-en-1-yloxy)carbonyl)pyrrolidine-3-carboxylic acid (stapling residue), C=CCCCOC(=O)N1CC[C@@](N[*:1])(C(=O)[*:2])C1; PyrS2 = (S)-3-amino-1-((pent-4-en-1-yloxy)carbonyl)pyrrolidine-3-carboxylic acid, C=CCCCOC(=O)N1CC[C@@](N[*:1])(C(=O)[*:2])C1; 4MePipBz = 4-((4-methylpiperazin-1-yl)methyl)benzoyl on Lys side chain, CN1CCN(Cc2ccc(C(=O)*)cc2)CC1; B5(3) = 2,2-bis(4-pentenyl)glycine (stitching residue), C=CCCCC(CCCC=C)(N[*:1])C(=O)[*:2]; MeMorphBz = 4-(morpholinomethyl)benzoyl on Lys side chain, O=C(c1ccc(CN2CCOCC2)cc1)*; Bta = N[C@@H](Cc1csc2ccccc12)C(=O)O; αAllylPro = C=CC[C@@]1(C(=O)O)CCCN1; tBuAla = CC(C)(C)C[C@H](N)C(=O)O; 3Thi = N[C@@H](Cc1ccsc1)C(=O)O; Butyryl = CCCC(=O)*
parameter: NanoBRET Abs IC50

QUERY: Which measured NanoBRET Abs IC50 value corresponds to Ac-[αAllylPro]D[tBuAla][B5(3)]DDAK(MeMorphBz)FN[PyrS2″][3Thi][Bta]Q-NH2 (staple 1-4, 4-11) [I-890] ?
RESULT: > 20 µM

QUERY: Need NanoBRET Abs IC50 of Ac-[αAllylPro]D[tBuAla][B5(3)]DDAK(Butyryl)FN[PyrS2][3Thi][Bta]Q-NH2 (staple 1-4, 4-11) [I-897] , thanks.
RESULT: > 20 µM

QUERY: Recorded NanoBRET Abs IC50 of Ac-[αAllylPro]D[tBuAla][B5(3)]DDAK(mPEG2)FN[PyrS2][3Thi][Bta]Q-NH2 (staple 1-4, 4-11; not fully specified) [I-892] , please.
RESULT: > 20 µM

QUERY: Need NanoBRET Abs IC50 of Ac-[αAllylPro]D[tBuAla][B5(3)]DDAK(4MePipBz)FN[PyrS2″][3Thi][Bta]Q-NH2 (staple 1-4, 4-11) [I-889] , thanks.
RESULT: > 20 µM
